concentration in single-turnover reaction reference
# experimental.target: human P450 11A1 (Homo sapiens, UniProt P05108)
# Sequence (P05108 41-521 limits assumed): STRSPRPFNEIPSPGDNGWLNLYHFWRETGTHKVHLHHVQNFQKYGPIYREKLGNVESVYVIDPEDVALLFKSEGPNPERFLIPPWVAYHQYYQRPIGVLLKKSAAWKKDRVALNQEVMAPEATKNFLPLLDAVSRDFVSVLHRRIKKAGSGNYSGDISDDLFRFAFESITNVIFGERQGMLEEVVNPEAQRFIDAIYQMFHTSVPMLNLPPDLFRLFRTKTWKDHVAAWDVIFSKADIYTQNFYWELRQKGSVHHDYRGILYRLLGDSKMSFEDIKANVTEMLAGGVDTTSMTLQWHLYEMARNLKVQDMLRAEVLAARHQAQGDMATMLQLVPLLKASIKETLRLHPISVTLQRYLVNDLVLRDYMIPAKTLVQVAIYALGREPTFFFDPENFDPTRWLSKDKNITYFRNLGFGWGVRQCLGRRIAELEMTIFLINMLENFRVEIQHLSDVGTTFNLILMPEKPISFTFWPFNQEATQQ
# Sequence (P00257 59-186 partner): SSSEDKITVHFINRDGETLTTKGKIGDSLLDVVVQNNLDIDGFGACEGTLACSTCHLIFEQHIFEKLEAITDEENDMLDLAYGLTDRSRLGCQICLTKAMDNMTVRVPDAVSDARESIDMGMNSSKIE
# method.description: Single-turnover kinetics of P450 11A1 with [1,2-3H]-cholesterol (radio-HPLC)
# Type: biochemical
# Set-up: M A S T R S P R P F N E I P S P G D N; Met-Ala (N-terminal start residues in place of the transit peptide and Ile40) (N); made in house; host or cells: E. coli (P450 11A1 in C41(DE3); Adx and AdR in E. coli)
# test.conditions: 10-fold excess (high) Adx, time 2 s
Lab book: enter the figure in µM, no units written.

Solved entries:
>>> numeric_result("CC(C)CC[C@@H](O)[C@](C)(O)[C@H]1CC[C@H]2[C@@H]3CC=C4C[C@@H](O)CC[C@]4(C)[C@H]3CC[C@]12C [20R,22R-(OH)2 Chol, (20R,22R)-Cholest-5-ene-3β,20,22-triol]")
0.1672
>>> numeric_result("CC(C)CCC[C@@H](C)[C@H]1CC[C@H]2[C@@H]3CC=C4C[C@@H](O)CC[C@]4(C)[C@H]3CC[C@]12C")
3.432
>>> numeric_result("CC(C)CC[C@@H](O)[C@@H](C)[C@H]1CC[C@H]2[C@@H]3CC=C4C[C@@H](O)CC[C@]4(C)[C@H]3CC[C@]12C [22R-OH Chol, 22R-hydroxycholesterol]")
0.2144

Okay, now this compound:
Tell me the measured concentration in single-turnover reaction of `CC(=O)[C@H]1CC[C@H]2[C@@H]3CC=C4C[C@@H](O)CC[C@]4(C)[C@H]3CC[C@]12C` , please.
0.6865
